Target under test: acetylcholine receptor
Protocol details: SPR, AchR immobilised on CM5 chip, peptide 10 uM
The following binders are shown together with reported Binding affinity (RU) values.
Just the number in RU, nothing appended.

Example binders with recorded Binding affinity (RU):
| Binder | Binding affinity (RU) |
| --- | --- |
| RFDKKR [6mer-2-748] | 28 |
| RKPWAR [6mer-1-1008] | 21 |
| KEMIKR [6mer-2-702] | 18 |

The recorded Binding affinity (RU) for KCEDKK [6mer-2-698] is 27
